Recorded values, source the RNAGym collection of RNA variant scans (doi:10.1073/pnas.2313332121).

Entries and their polymerase ribozyme fitness (log ratio) values follow.
B1: TPR 5TU (parent)
chain: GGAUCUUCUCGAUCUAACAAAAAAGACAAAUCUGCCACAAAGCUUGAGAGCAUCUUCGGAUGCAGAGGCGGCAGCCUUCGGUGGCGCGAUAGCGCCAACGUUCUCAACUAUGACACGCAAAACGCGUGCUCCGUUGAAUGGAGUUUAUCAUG

Variants of: B1
Test: polymerase ribozyme fitness, log enrichment relative to wild type (log ratio); higher = more active; in vitro selection for triplet polymerase activity
Variants at the floor of the assay were thinned out.

Completed entries (count: 10):
C87A A97G A142C :: ≤ -4.2
A47G G50A A52U C63A A142C :: ≤ -4.2
A52G G92C :: -1.46
C57U G59C C93A U135G :: ≤ -4.2
C32U A52C U55G C118U :: ≤ -4.2
G50C G86A C103G G124U C125U G126C :: ≤ -4.2
C32U G74A C93U :: -0.21
A41U U44A G65C C85G G143U :: ≤ -4.2
C14A C87A A97U G143A :: ≤ -4.2
A16C C36G G92A C108A A113G U139A :: ≤ -4.2

Query: polymerase ribozyme fitness (log ratio); subject: U55A C149U -1.55

Query: polymerase ribozyme fitness (log ratio); subject: A21G A24U U53A G94A -0.529

Query: polymerase ribozyme fitness (log ratio); subject: C43U G83U A120G ≤ -4.2

Query: polymerase ribozyme fitness (log ratio); subject: C36U C87A G117U ≤ -4.2

Query: polymerase ribozyme fitness (log ratio); subject: A49U G68C ≤ -4.2

Query: polymerase ribozyme fitness (log ratio); subject: A23C A39G C63U U104C C108G U135C ≤ -4.2
